The values you see were collected from patent US20250171438A1.

Examples of compounds with documented AC50 follow.
Target: human PAH with the R408W mutation (Homo sapiens, UniProt P00439, R408W)
Construct: expressed in transfected cells
Sequence (P00439 1-452 R408W): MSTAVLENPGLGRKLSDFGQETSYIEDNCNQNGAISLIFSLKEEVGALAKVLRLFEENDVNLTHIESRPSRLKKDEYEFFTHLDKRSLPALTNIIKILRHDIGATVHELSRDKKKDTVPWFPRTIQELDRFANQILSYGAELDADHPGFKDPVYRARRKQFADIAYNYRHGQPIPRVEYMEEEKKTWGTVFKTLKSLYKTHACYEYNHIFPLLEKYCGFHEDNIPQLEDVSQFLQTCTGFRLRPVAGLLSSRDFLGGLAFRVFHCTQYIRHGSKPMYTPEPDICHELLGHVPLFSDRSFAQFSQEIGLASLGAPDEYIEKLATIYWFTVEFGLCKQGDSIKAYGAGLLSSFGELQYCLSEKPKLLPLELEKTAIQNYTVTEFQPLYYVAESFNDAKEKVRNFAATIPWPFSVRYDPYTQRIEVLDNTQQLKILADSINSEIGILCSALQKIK
Assay: Cell Based Phenylalanine Flux Assay
Conditions: A375 cells expressing human R408W PAH; 24 hrs with compound; 13C-Tyrosine by LC-MS; average where tested multiple times; read-out: AC50

>>> df
                                   compound  value_observed
0  O=C(c1cc2cccnn2c1)N1CCc2[nH]cnc2[C@H]1c1nc2ccccc2[nH]1          > 5 µM

stdin: Quote AC50 with test system human PAH with the R408W mutation (Homo sapiens, UniProt P00439, R408W) for O=C(c1cc(CO)n[nH]1)N1CCc2[nH]cnc2C1c1nc2c(F)cccc2s1 (centres unmarked)
stdout: > 5 µM

stdin: Quote AC50 with test system human PAH with the R408W mutation (Homo sapiens, UniProt P00439, R408W) for COCCNc1nnc(C(=O)N2CCc3[nH]cnc3C2c2nc3ccccc3s2)o1 (centres unmarked)
stdout: 1 to 5 µM

stdin: Quote AC50 with test system human PAH with the R408W mutation (Homo sapiens, UniProt P00439, R408W) for Cn1ncc(C(=O)N2CCc3[nH]cnc3C2c2nc3c(F)cccc3s2)n1 (centres unmarked)
stdout: > 5 µM

stdin: Quote AC50 with test system human PAH with the R408W mutation (Homo sapiens, UniProt P00439, R408W) for O=C(CCc1nccs1)N1CCc2nc[nH]c2C1c1nc2cccc(Cl)c2[nH]1 (centres unmarked)
stdout: 1 to 5 µM

---

biological target: human PAH with the R408W mutation (Homo sapiens, UniProt P00439, R408W); construct: expressed in transfected cells; assay: Cell Based Phenylalanine Flux Assay; details: A375 cells expressing human R408W PAH; 24 hrs compound incubation; 13C-Tyrosine by LC-MS; average where tested multiple times; read-out: AC50
Examples of compounds with documented AC50 follow.

>>> df
                                   compound  value_observed
0  O=C(CC1CC1(F)F)N1CCc2[nH]cnc2[C@@H]1c1nc2ccccc2s1 (some centres unmarked) [Example 1273]       > 5000 nM
1  O=C(c1nnc(-c2cn[nH]c2)o1)N1CCc2[nH]cnc2[C@H]1c1nc2ccccc2s1  500 to 1000 nM
2  Cn1cc(C(=O)N2CCc3[nH]cnc3[C@@H]2c2nc3c(F)cccc3s2)c(C(F)(F)F)n1        < 500 nM
3  O=C(C1CN(c2ccc(F)cn2)C1)N1CCc2[nH]cnc2[C@@H]1c1nc2ccccc2s1       > 5000 nM
4  CC(O)c1nc(Br)c(C(=O)N2CCc3[nH]cnc3[C@H]2c2nc3c(F)cccc3s2)o1 (single isomer, unassigned) [Example 2058]        < 500 nM

stdin: For the compound O=C(c1cn(CC(F)(F)F)nc1C(F)F)N1CCc2[nH]cnc2[C@@H]1c1nc2ccccc2s1 , give its measured AC50 value.
stdout: 1000 to 5000 nM

stdin: For the compound O=C(CCc1nccs1)N1CCc2nc[nH]c2[C@@H]1c1nc2ccccc2s1 , give its measured AC50 value.
stdout: 1000 to 5000 nM

stdin: For the compound Cc1cnc(CC(=O)N2CCc3[nH]cnc3[C@@H]2c2nc3ccccc3s2)s1 , give its measured AC50 value.
stdout: 1000 to 5000 nM
